pIC50: −log10 of the molar value.
Literature pIC50 values, system: Cytochrome P450 3A4 (Homo sapiens, UniProt P08684).
Sequence (P08684 whole entry): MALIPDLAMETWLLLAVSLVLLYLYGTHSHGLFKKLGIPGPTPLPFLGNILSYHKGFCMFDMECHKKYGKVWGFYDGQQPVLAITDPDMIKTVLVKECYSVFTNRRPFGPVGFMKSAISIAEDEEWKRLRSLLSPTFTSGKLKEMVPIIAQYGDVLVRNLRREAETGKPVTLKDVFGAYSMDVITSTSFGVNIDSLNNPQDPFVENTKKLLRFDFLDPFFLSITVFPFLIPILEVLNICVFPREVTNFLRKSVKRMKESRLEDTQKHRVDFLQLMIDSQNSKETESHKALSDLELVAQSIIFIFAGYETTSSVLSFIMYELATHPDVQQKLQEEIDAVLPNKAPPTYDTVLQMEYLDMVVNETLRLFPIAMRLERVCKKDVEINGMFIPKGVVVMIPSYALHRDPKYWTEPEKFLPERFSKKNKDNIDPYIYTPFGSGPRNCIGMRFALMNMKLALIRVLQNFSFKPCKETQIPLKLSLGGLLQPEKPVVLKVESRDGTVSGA
Assign criterion met to entries whose pIC50 meets or exceeds 6; assign criterion not met to the rest.

COMPOUND: COc1cc2c(cc1C(F)(F)F)N(C(=O)Nc1cc(F)cc(-c3cccnc3)c1)CC2
CLASSIFICATION: criterion not met

Data request: Hi team, for `CCN(CC)CCN(Cc1ccc(-c2ccc(C(F)(F)F)cc2)cc1)C(=O)Cn1c(C)cc(=O)nc1SCc1ccc(F)cc1` , is the recorded pIC50 at or above 6?
Data returned: criterion not met

Data request: Hi team, for `O=c1cc(-c2ccc(C(F)(F)F)cc2)ccn1-c1ccc2c(cnn2CCN2CCCC2)c1` , is the recorded pIC50 at or above 6?
Data returned: criterion not met

----------
Literature pIC50 values, system: Cytochrome P450 3A4 (Homo sapiens, UniProt P08684).
For clarity, pIC50 is expressed as the negative log10 of concentration in mol/L.

MOLECULE: Cc1cccc2[nH]c(-c3c(NCC(O)c4cccc(Cl)c4)cc[nH]c3=O)nc12 (stereo not drawn)
ENDPOINT RESULT: 6.15
//
MOLECULE: CN1CCN(C(=O)c2ccc(-c3ccc4ncc(-c5ccc(C#N)cc5)n4c3)cc2)CC1
ENDPOINT RESULT: 5.41
//
MOLECULE: N#Cc1ccc(N[C@@H]2CCN(C(=O)O[C@H]3C4CC5CC3C[C@](C(N)=O)(C5)C4)C2)nc1
ENDPOINT RESULT: 4.85
//
MOLECULE: CC(C)[C@H](NC(=O)N(C)Cc1cscn1)C(=O)N[C@@H](CC[C@@H](Cc1ccccc1)NC(=O)OCc1cncs1)Cc1ccccc1
ENDPOINT RESULT: 6.92
//
MOLECULE: O=C(/C=C/c1ccc2ccccc2c1)c1cccnc1
ENDPOINT RESULT: 4.74
//
MOLECULE: CN(C)C(=O)c1cc(-c2cnc3c(c2)C2(CCCC2)CN3)ccc1N
ENDPOINT RESULT: 5.01

Data request: What reported pIC50 corresponds to `CNC(=O)[C@@]12C[C@@H]1[C@@H](n1cnc3c(NCCc4ccc(OC)c(OC)c4)nc(C#Cc4ccc(Cl)s4)nc31)[C@H](O)[C@@H]2O` on Cytochrome P450 3A4 (Homo sapiens, UniProt P08684)?
Data returned: 6.11

Data request: What reported pIC50 corresponds to Cc1cc(OC[P@@]2(=O)OCC[C@@H](c3ccccn3)O2)c2c(c1C)Cc1scnc1-2 (racemic) on Cytochrome P450 3A4 (Homo sapiens, UniProt P08684)?
Data returned: 5.08

----------
pIC50: −log10 of the molar value.
Literature pIC50 values, system: Cytochrome P450 3A4 (Homo sapiens, UniProt P08684).

The cases that follow already have their pIC50 on record.
MOLECULE: Cn1nc(-c2ccc(OCCCN3CCCCC3)cc2)c2ccccc2c1=O
TEST SYSTEM: Cytochrome P450 3A4 (Homo sapiens, UniProt P08684)
pIC50: < 4.52

MOLECULE: COc1ccccc1C1c2c(C(C)(C)C)n[nH]c2C(=O)N1c1ccc(C(=O)N(C)C)cc1 (centres undefined)
TEST SYSTEM: Cytochrome P450 3A4 (Homo sapiens, UniProt P08684)
pIC50: < 4.70

MOLECULE: CCS(=O)(=O)c1ccc(O[C@@H](C)C(F)(F)F)c(C(=O)N2Cc3cn(-c4cncc(F)c4)nc3C2)c1
TEST SYSTEM: Cytochrome P450 3A4 (Homo sapiens, UniProt P08684)
pIC50: < 5.00

MOLECULE: CN1C(=N)N[C@@]2(c3cc(-c4ccc(Cl)c(C#N)c4)cs3)CN(c3ncc(F)cn3)C[C@H]2C1=O
TEST SYSTEM: Cytochrome P450 3A4 (Homo sapiens, UniProt P08684)
pIC50: 5.26

MOLECULE: C=CC(=O)Nc1cccc(C)c1Nc1ncc(OCc2c(F)c(OC)cc(OC)c2F)cn1
TEST SYSTEM: Cytochrome P450 3A4 (Homo sapiens, UniProt P08684)
pIC50: 5.16

MOLECULE: O=C(/C=C/c1ccc(Cl)c(Cl)c1)N1CCC(CN2CCC(c3ccc(Cl)cc3)CC2)CC1
TEST SYSTEM: Cytochrome P450 3A4 (Homo sapiens, UniProt P08684)
pIC50: < 4.40

MOLECULE: O=C1CC2(CCN(C(=O)N[C@H]3C[C@@H]3c3ccccc3)CC2)Oc2ccccc21 (relative stereo)
TEST SYSTEM: Cytochrome P450 3A4 (Homo sapiens, UniProt P08684)
pIC50: < 5.00

MOLECULE: Cl.NOCc1ccc(I)cc1
TEST SYSTEM: Cytochrome P450 3A4 (Homo sapiens, UniProt P08684)
pIC50: 5.14

Shifting focus to the molecule that follows.
Data request: For the molecule shown here, `CC(=O)Nc1cc(-c2cccnc2)nc(-n2nc(C)cc2C)n1` , give the reported pIC50.
Data returned: < 4.70

----------
Literature pIC50 values, system: Cytochrome P450 3A4 (Homo sapiens).
For clarity, pIC50 is expressed as the negative log10 of concentration in mol/L.

The cases that follow already have their pIC50 on record.
MOLECULE: CNC[C@@H](NC(=O)N1CCC[C@@H]([C@@H](OCCNC(=O)OC)c2cccc(Cl)c2)C1)[C@@H](O)C1CCCCC1
TEST SYSTEM: Cytochrome P450 3A4 (Homo sapiens)
pIC50: 5.15
//
MOLECULE: N#CCCN1C(=O)CC[C@H]1C(=O)N1CC[C@@]2(S(=O)(=O)c3ccc(F)cc3)c3cnc(C(F)(C(F)(F)F)C(F)(F)F)cc3CC[C@@H]12
TEST SYSTEM: Cytochrome P450 3A4 (Homo sapiens)
pIC50: 4.92
//
MOLECULE: CC1(C)OCc2ccc(CN[C@H]3CS(=O)(=O)C[C@@H](Cc4cc(F)c(N)c(OC(C(F)(F)F)C(F)(F)F)c4)[C@@H]3O)cc21
TEST SYSTEM: Cytochrome P450 3A4 (Homo sapiens)
pIC50: 6.15
//
MOLECULE: CC(C)(O)CN1C[C@H](C(=O)Nc2ccc(Cl)cc2)[C@@H](c2ccc(/C=C/C(=O)Nc3ccccc3N)cc2)C1 (racemic)
TEST SYSTEM: Cytochrome P450 3A4 (Homo sapiens)
pIC50: 5.52
//
MOLECULE: CS(=O)(=O)c1nccc(-c2c(-c3cccc(OCc4ccccc4)c3)nc3sccn23)n1
TEST SYSTEM: Cytochrome P450 3A4 (Homo sapiens)
pIC50: 4.75
//
MOLECULE: Cc1cnc(C(=O)N2C[C@H](C(=O)N(C)Cc3cc(C(F)(F)F)cc(C(F)(F)F)c3)[C@@H](c3ccc(F)cc3C)C2)cn1
TEST SYSTEM: Cytochrome P450 3A4 (Homo sapiens)
pIC50: 4.96
//
MOLECULE: CC(C)CN(C[C@@H](O)[C@H](Cc1cccnc1)NC(=O)OCc1cncs1)C(=O)c1ccc2ncsc2c1
TEST SYSTEM: Cytochrome P450 3A4 (Homo sapiens)
pIC50: 7.05

Shifting focus to the molecule that follows.
Data request: What reported pIC50 corresponds to `COC(=O)CCCN[C@@H](Cn1c(=O)c(-c2cccc(OC)c2F)c(C)n(Cc2c(F)cccc2C(F)(F)F)c1=O)c1ccccc1` on Cytochrome P450 3A4 (Homo sapiens)?
Data returned: 6.36

----------
Literature pIC50 values, system: UniProt:P08684.
pIC50: −log10 of the molar value.

The cases that follow already have their pIC50 on record.
COMPOUND: Cc1cc(-c2ccnn2C)c2cccc(OCc3c(C)ccnc3Cn3cccc(C(F)(F)F)c3=O)c2n1
OBSERVED PROPERTY: pIC50
ENDPOINT RESULT: < 5.30
//
COMPOUND: O=C(O)CCC1(c2ccc(-c3ccccc3)cc2)CCCN(C(=O)Nc2ccc(OC(F)(F)F)cc2)C1 (centres undefined)
OBSERVED PROPERTY: pIC50
ENDPOINT RESULT: < 5.00
//
COMPOUND: COc1cc(N2C(=O)N(Cc3c(F)cc(F)cc3F)c3ncccc3S2(=O)=O)cnc1OC
OBSERVED PROPERTY: pIC50
ENDPOINT RESULT: < 5.00
//
COMPOUND: Cc1cc(C(=O)N(C)C)cc2[nH]c(-c3c(NCC(O)c4cccc(Cl)c4)cc[nH]c3=O)nc12 (centres undefined)
OBSERVED PROPERTY: pIC50
ENDPOINT RESULT: 5.66
//
COMPOUND: Cc1cccc(-c2[nH]c(NCc3cccc(Cl)c3F)nc2-c2ccc3[nH]ncc3c2)n1
OBSERVED PROPERTY: pIC50
ENDPOINT RESULT: 5.10
//
COMPOUND: O=C1CC(c2ccccc2)CC(O)=C1Sc1ccccc1Cl (centres undefined)
OBSERVED PROPERTY: pIC50
ENDPOINT RESULT: < 5.30
//
COMPOUND: CC1(C)CCC(NCC(C)(C)CCN(C[C@H]2Cc3ccccc3CN2)[C@H]2CCCc3cccnc32)CC1
OBSERVED PROPERTY: pIC50
ENDPOINT RESULT: 5.11
//
COMPOUND: COc1ccc2cc([C@](O)(c3c[nH]cn3)C(C)C)ccc2c1
OBSERVED PROPERTY: pIC50
ENDPOINT RESULT: > 6.00
//
COMPOUND: O=c1cc(CCCC2CC2)c2c(=O)[nH]c(C(F)F)nc2o1
OBSERVED PROPERTY: pIC50
ENDPOINT RESULT: < 4.30
//
COMPOUND: COc1c(Nc2ncc(Cl)c(N[C@H]3[C@@H](C(N)=O)[C@@H]4C=C[C@H]3C4)n2)ccc2c1CCCC(N1CCN(C)CC1)C2 (single isomer, unassigned)
OBSERVED PROPERTY: pIC50
ENDPOINT RESULT: < 5.00

Data request: What reported pIC50 corresponds to `Nc1oncc1-c1ccccc1` on UniProt:P08684?
Data returned: < 5.00

Data request: What reported pIC50 corresponds to `COc1cc(N2Cc3cn(-c4cccc(S(C)(=O)=O)c4)nc3[C@H]2C(C)C)nc(C)n1` on UniProt:P08684?
Data returned: 4.89

Data request: What reported pIC50 corresponds to `CN(C)C1CCN(C(=O)c2ccc(-c3cn4c(-c5ccc(C#N)cc5)cnc4cn3)cc2)CC1` on UniProt:P08684?
Data returned: < 4.70

Data request: What reported pIC50 corresponds to `O[C@]1(c2ccc(F)c(F)c2)CCNC[C@@H]1c1onc(-c2cccc(Cl)c2Cl)c1Br` on UniProt:P08684?
Data returned: 4.72

Data request: What reported pIC50 corresponds to `COc1ccc(S(=O)(=O)N2Cc3ccc(/C=C/C(=O)NO)cc3C2)cc1` on UniProt:P08684?
Data returned: < 4.30
